Please go through the items and note down their amyloid nucleation score.
assay: amyloid nucleation score (Sup35N fusion, yeast selection) (log enrichment); library NNK1; higher = more nucleation; inactive = no reads after selection;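 note: zero at mode of non-aggregating sequences after 7 days selection at 30°C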
Respond numerically, and do not add a unit to the figure.

For record DPICYKRNKANVYLGRFGYR the listed amyloid nucleation score is 0.7

Please fill in: amyloid nucleation score reported for IKAELAKCLNTACVKFFCDV = 0.715

Noted for RDTVTSNSSVT : its amyloid nucleation score reads 4.36

# sequence TYPYMCNHFLVLELNVIVAL ; its amyloid nucleation score = 0.363

Input SHREMPSPIGMVSSSFMRVT . Output amyloid nucleation score: 0.539

Given item KSTSRPCHWIYWMWMVYPRY , the value recorded as its amyloid nucleation score is 0.445

The sequence listed as RMDFIHISTAIFSKEVDSRR shows amyloid nucleation score equal to 1.04

Entry IYNGVTGRYWTSHI — recorded amyloid nucleation score = -0.989

// recorded amyloid nucleation score for YNRLKSIV : 1.51

sequence CIVYFSCLMYHWILDC , amyloid nucleation score observed: 0.422

// amyloid nucleation score value for WYVLCYGPRFFYMSRLS : -0.411

Field amyloid nucleation score (entry STLYLLHGRNSHTGRSFSRH ) reads -1.01

Consider NLSGRSLSRLIDLFNRFTC . Its measured amyloid nucleation score is 0.919

Lab note: CTQGCHRVNWSVTYRVVFLA gave amyloid nucleation score of 0.848

response.value for MCVMVGLLYGVLLSSFTNNA (field: amyloid nucleation score) = 0.684

Reported amyloid nucleation score for PSRLIYDYAAFTVVGLLEMF was -0.235
